target: His-LAMA4 as used in Example 6 (species not stated) (Homo sapiens (Human)) (UniProt Q16363); experiment: Biacore SPR, Fab, steady-state approximation
One threshold, 2 nM, splits the recorded Kd values: lower ones are 1, equal or higher ones are -1.

Before answering, review these 4 worked examples.
{"binder": "Fab fragment of chimeric 19C12 (Fab, V domains shown) VH: QVQLQQSGAELVKPGASVKISCKASGYAFSTYWMNWVKQRPGEGLEWIGQIYPGDGDTNYNGKFKGKATLTADKSSSTAYMQLSSLTSEDSAVYFCARSDGYYDYWGQGTTLTVSS VL: NIVLTQSPASLAVSLGQRATISCRASESVDSYGTSFMHWYQQKPGQPPKLLICLASSLESGVPARFSGSGSRTDFTLTIDPVEADDAATYYCQQNNEDPPTFGAGTKLELKR", "assigned label": 1}
{"binder": "Fab fragment of humanized 19C12 H2L3 (Fab, V domains shown) VH: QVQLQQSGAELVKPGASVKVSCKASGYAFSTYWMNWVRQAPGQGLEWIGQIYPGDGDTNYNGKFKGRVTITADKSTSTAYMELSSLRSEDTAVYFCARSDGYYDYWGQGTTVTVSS VL: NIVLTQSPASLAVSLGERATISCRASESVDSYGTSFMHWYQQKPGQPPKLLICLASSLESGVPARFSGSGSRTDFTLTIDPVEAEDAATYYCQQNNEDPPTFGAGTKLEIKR", "assigned label": 1}
{"binder": "Fab fragment of humanized 19C12 H3L6 (Fab, V domains shown) VH: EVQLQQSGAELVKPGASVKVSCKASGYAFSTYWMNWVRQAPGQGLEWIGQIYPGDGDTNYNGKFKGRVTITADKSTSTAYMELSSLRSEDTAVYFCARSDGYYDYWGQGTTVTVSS VL: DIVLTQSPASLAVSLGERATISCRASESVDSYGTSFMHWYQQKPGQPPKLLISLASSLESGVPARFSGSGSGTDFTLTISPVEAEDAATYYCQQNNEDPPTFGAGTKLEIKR", "assigned label": -1}
{"binder": "Fab fragment of humanized 19C12 H2L6 (Fab, V domains shown) VH: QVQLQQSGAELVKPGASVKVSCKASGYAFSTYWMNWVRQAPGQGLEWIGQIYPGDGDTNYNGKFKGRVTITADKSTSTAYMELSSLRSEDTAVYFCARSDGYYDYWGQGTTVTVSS VL: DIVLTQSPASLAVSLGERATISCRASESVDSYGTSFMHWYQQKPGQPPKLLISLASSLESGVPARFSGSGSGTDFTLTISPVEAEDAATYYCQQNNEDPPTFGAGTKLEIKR", "assigned label": -1}

// query Does the reported Kd of Fab fragment of humanized 19C12 H2L4 (Fab, V domains shown) VH: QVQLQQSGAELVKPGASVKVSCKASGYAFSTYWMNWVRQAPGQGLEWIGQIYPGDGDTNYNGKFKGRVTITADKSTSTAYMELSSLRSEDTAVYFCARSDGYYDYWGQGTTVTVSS VL: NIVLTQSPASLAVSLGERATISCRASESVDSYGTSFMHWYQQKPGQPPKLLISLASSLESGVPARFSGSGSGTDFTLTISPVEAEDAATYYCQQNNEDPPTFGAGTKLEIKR stay below 2 nM?
// result -1
